Would you kindly list residual activity for each of these compounds?
measuredTarget: MYLK2 (human)
test: radiometric filter-binding kinase assay, Kinase HotSpot
cond: compound 0.5 µM; ATP 10 µM
One number for each entry, in %.

{"compound": "CC(C)n1cnc2c(Nc3cccc(Cl)c3)nc(NCCO)nc21", "residual activity (%)": 96.3}
{"compound": "COc1cc2nccc(Oc3ccc(NC(=S)NC(=O)c4ccccc4C)cc3)c2cc1OC", "residual activity (%)": 26.8}
{"compound": "CC(C)[C@H](CO)Nc1nc(Nc2cccc(Cl)c2)c2ncn(C(C)C)c2n1", "residual activity (%)": 97.1}
{"compound": "CSc1nc(-c2ccc(F)cc2)c(-c2ccnc(NC(C)c3ccccc3)c2)[nH]1 (stereo unspecified)", "residual activity (%)": 102}
{"compound": "O=c1cc(-c2cccc3c2Sc2ccccc2S3)oc(N2CCOCC2)c1", "residual activity (%)": 97.4}

Could you tell me residual activity for each of these compounds? They are listed below.
1. O=C(Nc1ccc(Cl)cc1)c1ccccc1NCc1ccncc1
2. CS(=O)c1ccc(-c2nc(-c3ccc(F)cc3)c(-c3ccncc3)[nH]2)cc1 (stereo unspecified)
3. COc1ccc(-c2cnc3c(-c4ccsc4)cnn3c2)cc1
4. CCCNC(=O)Nc1ccc(Oc2ncnc3cc(OC)c(OC)cc23)cc1Cl

OUTPUT:
99.5
99.9
75.6
99.9

Could you tell me residual activity for each of these compounds? They are listed below.
1. CC(C)(C)c1nc2c3ccc(F)cc3c3c(=O)[nH]ccc3c2[nH]1
2. CCN1/C(=C/C(C)=O)Sc2ccc(OC)cc21

OUTPUT:
[67.2, 95.1]

* * *

measuredTarget: UniProtKB Q9BXA7
Sequence (Q9BXA7 whole entry, looked up): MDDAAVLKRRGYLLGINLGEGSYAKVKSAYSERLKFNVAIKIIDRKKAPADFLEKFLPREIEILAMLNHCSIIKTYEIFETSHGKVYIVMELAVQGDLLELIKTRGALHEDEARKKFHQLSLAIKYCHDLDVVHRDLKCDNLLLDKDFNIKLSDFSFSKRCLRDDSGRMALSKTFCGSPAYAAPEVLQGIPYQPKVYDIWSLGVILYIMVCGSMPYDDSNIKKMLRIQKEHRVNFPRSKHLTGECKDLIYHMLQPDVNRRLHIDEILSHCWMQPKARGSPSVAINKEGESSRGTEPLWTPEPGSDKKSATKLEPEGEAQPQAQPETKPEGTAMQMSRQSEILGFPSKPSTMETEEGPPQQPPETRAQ
test: radiometric filter-binding kinase assay, Kinase HotSpot
cond: compound 0.5 µM; ATP 10 µM
quantity: residual activity (%)
One number for each entry, in %.

{"compound": "C#Cc1cccc(Nc2ncnc3cc(OCCOC)c(OCCOC)cc23)c1", "measuredTarget": "UniProtKB Q9BXA7", "residual activity / %": 78.9}
{"compound": "CCN1/C(=C/C(C)=O)Sc2ccc(OC)cc21", "measuredTarget": "UniProtKB Q9BXA7", "residual activity / %": 110}
{"compound": "O=C1Nc2ccccc2/C1=C\\c1c(Cl)[nH]c2ccccc12", "measuredTarget": "UniProtKB Q9BXA7", "residual activity / %": 101}

Could you tell me residual activity for each of these compounds? They are listed below.
1. O=C(NC(NC(=S)Nc1ccc(F)c([N+](=O)[O-])c1)C(Cl)(Cl)Cl)C(c1ccccc1)c1ccccc1 (stereo unspecified)
2. CSc1nc(-c2ccc(F)cc2)c(-c2ccnc(NC(C)c3ccccc3)c2)[nH]1 (stereo unspecified)
3. Cc1cc2ncc(-c3ccccc3)nc2cc1C
4. CC(C)(C)c1nc2c3ccc(F)cc3c3c(=O)[nH]ccc3c2[nH]1
5. Oc1ccc(-c2nc(-c3ccc(F)cc3)c(-c3ccncc3)[nH]2)cc1
6. Cc1ccc(NC(=O)c2ccc(CN3CCN(C)CC3)cc2)cc1Nc1nc(-c2cccnc2)cs1
7. O=C(Nc1ccc(Cl)cc1)c1ccccc1NCc1ccncc1

OUTPUT:
1. 93.4
2. 73.5
3. 113
4. 37.3
5. 104
6. 100
7. 103

Could you tell me residual activity for each of these compounds? They are listed below.
1. CCCNC(=O)Nc1ccc(Oc2ncnc3cc(OC)c(OC)cc23)cc1Cl
2. CS(=O)c1ccc(-c2nc(-c3ccc(F)cc3)c(-c3ccncc3)[nH]2)cc1 (stereo unspecified)

OUTPUT:
[80.4, 108]

Data provenance is the kinase profiling compilation of Christmann-Franck et al. (2016).
